// provenance: patent US20240002542A1

Measured Target: T1, hIL27Ra-his (Origene, Catalog #TP307012) (human, UniProt Q6UWB1 33-516, limits assumed)
T1 construct: Bought his-tagged cytokine receptor used as SPR analyte; also called human IL27 receptor subunit alpha; not shown: his tag
T1 sequence: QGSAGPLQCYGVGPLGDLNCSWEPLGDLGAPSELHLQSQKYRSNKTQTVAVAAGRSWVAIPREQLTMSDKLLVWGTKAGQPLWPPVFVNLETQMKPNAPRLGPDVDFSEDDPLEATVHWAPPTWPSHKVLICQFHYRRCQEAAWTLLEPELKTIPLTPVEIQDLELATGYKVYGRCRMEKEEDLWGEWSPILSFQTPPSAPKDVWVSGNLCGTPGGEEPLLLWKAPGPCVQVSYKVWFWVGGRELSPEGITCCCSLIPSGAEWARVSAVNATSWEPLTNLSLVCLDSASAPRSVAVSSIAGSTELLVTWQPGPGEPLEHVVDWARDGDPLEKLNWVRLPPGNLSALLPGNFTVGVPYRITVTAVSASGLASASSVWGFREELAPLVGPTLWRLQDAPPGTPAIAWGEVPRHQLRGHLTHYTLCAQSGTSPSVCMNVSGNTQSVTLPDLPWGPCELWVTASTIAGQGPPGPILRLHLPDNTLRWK
Test: SPR Biacore T200; mono-Fc VHH on Protein A chip, hIL27Ra-his analyte
Test Readout: kon
Kindly format the answer as number then unit.

Binder	Test Readout	Measurement
25-DR602 (SEQ ID NO. 250), anti-hIL27Ra Mono-Fc VHH (Fc fusion, Mono-Fc VHH ligand captured on a Protein A chip; not shown: mono-Fc part) QVQLQESGGGSVQAGGSLRLSCRASGSTYSNYCLGWFRQITGKEREGVAVINWVGGMLYFADSVKGRFTVSQDQAKNTVYLQMNSLKPEDTAMYYCAAESVSSFSCGGWLTRPDRVPYWGQGTQVTVSS	kon	150000 M⁻¹ s⁻¹
23-DR600 (SEQ ID NO. 248), anti-hIL27Ra Mono-Fc VHH (Fc fusion, Mono-Fc VHH ligand captured on a Protein A chip; not shown: mono-Fc part) QVQLQESGGGSVQSGGSLRLSCAASGFTYSTSNSWMAWFRQAPGKEREGVAAIYTVGGSIFYADSVRGRFTISQDATKNMFYLQMNTLKPEDTAMYYCAAASGRLRGKWFWPYEYNYWGQGTQVTVSS	kon	59000 M⁻¹ s⁻¹
26-DR603 (SEQ ID NO. 251), anti-hIL27Ra Mono-Fc VHH (Fc fusion, Mono-Fc VHH ligand captured on a Protein A chip; not shown: mono-Fc part) QVQLQESGGGLVQPGGSLRLSCAASGFTFSLSSMSWVRQAPGKGLEWVSAISSGGASTYYTDSVKGRFTISRDNAKNMLYLQLNSLKTEDTAMYYCAKGGSGYGDASRMTSPGSQGTQVTVSS	kon	130000 M⁻¹ s⁻¹
20-DR597 (SEQ ID NO. 245), anti-hIL27Ra Mono-Fc VHH (Fc fusion, Mono-Fc VHH ligand captured on a Protein A chip; not shown: mono-Fc part) QVQLQESGGGLVQPGGSLRLSCAASGFTFSSYPMSWVRQAPGKGLEWISTISAGGDTTLYADSVKGRFTSSRDNAKNTLYLQLNSLKTEDAAIYYCAKRIDCNSGYCYRRNYWGQGTQVTVSS	kon	30000 M⁻¹ s⁻¹

// 24-DR601 (SEQ ID NO. 249), anti-hIL27Ra Mono-Fc VHH (Fc fusion, Mono-Fc VHH ligand captured on a Protein A chip; not shown: mono-Fc part) QVQLQESGGGSVQAGGSLRLSCVASGYVSCDYFLPSWYRQAPGKEREFVSIIDGTGSTSYAASVKGRFTASQDKGKNIAYLQMNTLKPEDTAMYYCKASCVRGRAISEYWGQGTQVTVSS : kon value = 91000 M⁻¹ s⁻¹
